# System: UniProt P06401
# Sequence (P06401 whole entry): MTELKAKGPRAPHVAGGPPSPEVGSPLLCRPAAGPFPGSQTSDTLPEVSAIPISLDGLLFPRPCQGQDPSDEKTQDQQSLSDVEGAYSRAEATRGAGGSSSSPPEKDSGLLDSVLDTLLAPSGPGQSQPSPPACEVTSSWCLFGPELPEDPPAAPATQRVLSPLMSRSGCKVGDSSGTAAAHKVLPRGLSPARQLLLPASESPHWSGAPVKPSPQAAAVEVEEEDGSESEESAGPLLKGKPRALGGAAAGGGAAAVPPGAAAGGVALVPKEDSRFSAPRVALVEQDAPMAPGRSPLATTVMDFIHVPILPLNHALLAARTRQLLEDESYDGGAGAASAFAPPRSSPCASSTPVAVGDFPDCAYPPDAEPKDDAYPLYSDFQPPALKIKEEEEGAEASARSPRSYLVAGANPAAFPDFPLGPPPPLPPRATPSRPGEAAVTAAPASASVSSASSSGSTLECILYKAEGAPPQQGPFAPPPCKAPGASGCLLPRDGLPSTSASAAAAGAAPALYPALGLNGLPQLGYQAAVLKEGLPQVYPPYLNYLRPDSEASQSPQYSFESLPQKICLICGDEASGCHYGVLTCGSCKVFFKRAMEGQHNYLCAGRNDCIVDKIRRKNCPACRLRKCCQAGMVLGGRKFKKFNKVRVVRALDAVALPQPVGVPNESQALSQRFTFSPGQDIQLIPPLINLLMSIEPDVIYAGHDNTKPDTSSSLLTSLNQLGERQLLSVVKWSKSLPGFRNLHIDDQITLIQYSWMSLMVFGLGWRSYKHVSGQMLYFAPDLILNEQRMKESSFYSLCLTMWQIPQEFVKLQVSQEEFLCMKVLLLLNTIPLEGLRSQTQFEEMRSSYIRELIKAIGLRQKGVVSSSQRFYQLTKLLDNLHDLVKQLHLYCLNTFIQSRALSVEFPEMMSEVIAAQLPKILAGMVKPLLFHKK
# Type: functional
Quantity Name: AC50

CC(=O)OCC(=O)[C@@]12OC3(CCCC3)O[C@@H]1C[C@H]1[C@@H]3CCC4=CC(=O)C=C[C@]4(C)[C@@]3(F)[C@@H](O)C[C@@]12C [AMCINONIDE]	0.212 µM
CNC(=O)c1cc(Oc2ccc(NC(=O)Nc3ccc(Cl)c(C(F)(F)F)c3)cc2)ccn1	> 30 µM
CCCCCCCCOc1ccccc1C(=O)Nc1ccc(C(=O)OCC[N+](C)(CC)CC)cc1 [OTILONIUM BROMIDE]	> 30 µM
CC1=CC(=O)c2ccccc2C1=O	> 30 µM
N[C@@H](C(=O)N[C@@H]1C(=O)N2C(C(=O)O)=C(Cl)CS[C@H]12)c1ccccc1 [CEFACLOR ANHYDROUS]	> 30 µM

Return value of AC50 for input C[C@@H]1O[C@@H]1P(=O)(O)O , no commentary.
> 30 µM

Using the record for O=C(Cn1ccnc1[N+](=O)[O-])NCc1ccccc1 , state its measured AC50.
> 30 µM

Output measured AC50 for this item: CCCCCCC(C)(C)c1cc(O)c2c(c1)OC(C)(C)C1CCC(=O)CC21 (configuration not stated)
> 30 µM

Please give measured AC50 of the following entry: CC(C)(C(=O)c1cccnc1)c1cccnc1
> 10 µM

Given the molecule Cc1cccc(C)c1OCC(C)N (configuration not stated) , write its reported AC50.
> 30 µM

Item CCOc1cc(N)c([N+](=O)[O-])cc1C(=O)NC1CCN(CC2CC=CCC2)CC1 (configuration not stated) [CINITAPRIDE] : provide AC50
> 30 µM

All figures here come from ChEMBL document CHEMBL5291721.
